Parameter: % Inhibition Factor Xa (30 µM). Scope: all listed entries.
Target: Human factor Xa (Homo sapiens, UniProt P00742)
Sequence (P00742 41-179 limits assumed): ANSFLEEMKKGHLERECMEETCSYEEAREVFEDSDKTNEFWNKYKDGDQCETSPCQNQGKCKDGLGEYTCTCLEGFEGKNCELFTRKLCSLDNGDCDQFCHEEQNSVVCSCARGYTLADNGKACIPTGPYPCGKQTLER
Sequence (P00742 235-488 limits assumed): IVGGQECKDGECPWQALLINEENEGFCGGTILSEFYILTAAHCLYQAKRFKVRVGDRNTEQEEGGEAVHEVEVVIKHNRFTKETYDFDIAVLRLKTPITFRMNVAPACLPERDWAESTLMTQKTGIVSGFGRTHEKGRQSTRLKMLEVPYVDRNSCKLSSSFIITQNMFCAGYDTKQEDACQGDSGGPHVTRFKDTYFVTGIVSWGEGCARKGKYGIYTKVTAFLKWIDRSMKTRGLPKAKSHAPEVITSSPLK
Assay: Xa Assay
Format: biochemical
Design: purchased Enzyme Research Laboratories, South Bend Ind
Conditions: at 30 µM inhibitor
Entry format: amount then unit.

Worked cases, % Inhibition Factor Xa (30 µM) given:
>  <structure as smiles>
COC(=O)c1cc(N)cc(-c2c(Cl)nc(NC3CCC3)c(=O)n2CC(=O)NCc2ccc(C(=N)N)cc2)c1

>  <% Inhibition Factor Xa (30 µM)>
27%

$$$$
>  <structure as smiles>
N=C(N)c1ccc(CNC(=O)Cn2c(-c3ccsc3)c(Cl)nc(NCc3ccccc3)c2=O)cc1

>  <% Inhibition Factor Xa (30 µM)>
0%

$$$$
>  <structure as smiles>
Cc1c(Cl)nc(NCc2ccccc2)c(=O)n1CC(=O)NCc1ccc(C(=N)N)cc1

>  <% Inhibition Factor Xa (30 µM)>
10%

$$$$

Query: Can you share its % Inhibition Factor Xa (30 µM)? I mean this compound: "N=C(N)c1ccc(CNC(=O)Cn2c(-c3cccc(Cl)c3)c(Cl)nc(NCCN3CCOCC3)c2=O)cc1"
Result: 8%

Query: // same read-out, input: "COc1ccc(-c2c(Cl)nc(NCCc3cccnc3)c(=O)n2CC(=O)NCc2ccc(C(=N)N)cc2)cc1"
Result: 11%

Query: Let us now turn to "C[C@H](C(=O)NCc1ccc(C(=N)N)cc1)n1c(-c2ccccc2)c(Cl)nc(NC2CCC2)c1=O"
Result: 0%

Query: Can you handle "CC(C)Nc1ncc(-c2cccc(N)c2)n(CC(=O)NCc2ccc(C(=N)N)c(F)c2)c1=O" next?
Result: 0%

---

Target: recombinant soluble tissue factor and recombinant human factor VIIa (TF-VIIa) (Homo sapiens, UniProt P08709)
Construct: conversion of coagulation factor VII to VIIa by Xa; purchased American Diagnostica, Greenwich Conn; host or cells: VIIa purchased; soluble TF made in house in E. coli
Sequence (P08709 61-212 limits assumed): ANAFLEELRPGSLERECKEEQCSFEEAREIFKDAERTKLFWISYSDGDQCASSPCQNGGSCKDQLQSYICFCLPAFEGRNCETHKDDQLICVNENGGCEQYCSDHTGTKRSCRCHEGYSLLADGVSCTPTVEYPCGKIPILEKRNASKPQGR
Sequence (P08709 213-466 limits assumed): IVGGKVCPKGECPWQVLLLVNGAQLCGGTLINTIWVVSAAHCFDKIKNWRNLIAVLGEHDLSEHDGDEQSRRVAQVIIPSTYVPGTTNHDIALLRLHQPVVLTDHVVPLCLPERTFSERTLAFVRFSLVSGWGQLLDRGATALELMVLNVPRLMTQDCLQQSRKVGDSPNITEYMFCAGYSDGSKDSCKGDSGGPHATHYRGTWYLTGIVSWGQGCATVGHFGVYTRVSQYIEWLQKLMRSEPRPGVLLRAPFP
Sequence (P13726 33-251 partner limits assumed): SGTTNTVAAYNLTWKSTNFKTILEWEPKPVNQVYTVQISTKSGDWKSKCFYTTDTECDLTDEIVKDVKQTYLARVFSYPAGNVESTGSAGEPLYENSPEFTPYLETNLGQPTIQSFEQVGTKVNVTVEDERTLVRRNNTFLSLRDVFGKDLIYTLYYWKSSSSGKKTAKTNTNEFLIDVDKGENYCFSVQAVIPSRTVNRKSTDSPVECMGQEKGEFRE
Test: TF-VIIa Assay
Type: biochemical
Conditions: read-out: IC50 TF-VIIa, cell printed 'at 100 μM' without %; cell adds 'at 100 μM'
endpoint: IC50
Express the reported value numerically, then name its unit.

Query: Form field: reported IC50 of CC(CC(=O)O)Nc1nc(Cl)c(-c2cccc(N)c2)n(CC(=O)NCc2ccc(C(=N)N)cc2)c1=O (stereo not shown) [Example 130]
Result: 180 nM

---

A collection of compounds and their measured % Inhibition Factor Xa (30 µM)
Target: UniProt:P00742
Experiment: Xa Assay
Type: biochemical
Set-up: purchased Enzyme Research Laboratories, South Bend Ind
Conditions: at 30 µM inhibitor
Use % as the unit, but write only the number.

Before answering, review these 2 worked examples.
>  <structure as smiles>
C[C@@H](C(=O)NCc1ccc(C(=N)N)cc1)n1c(-c2ccccc2)c(Cl)nc(NC2CCC2)c1=O

>  <system tested>
UniProt:P00742

>  <unit info>
%

>  <observed>
0

$$$$
>  <structure as smiles>
N=C(N)c1ccc(CNC(=O)Cn2c(-c3ccccc3O)c(Cl)nc(NC3CCC3)c2=O)cc1

>  <system tested>
UniProt:P00742

>  <unit info>
%

>  <observed>
0

$$$$

Query: Which value of % Inhibition Factor Xa (30 µM) has been reported for "CCc1c(Cl)nc(NCCc2cccnc2)c(=O)n1CC(=O)NCc1ccc(C(=N)N)cc1" in the records?
Result: 2

Query: Entry to check: "N=C(N)c1ccc(CNC(=O)Cn2c(-c3ccc(Cl)cc3)c(Cl)nc(NCCc3ccc(Cl)cc3)c2=O)cc1"
Result: 26

Query: Query "CC(C)Nc1nc(Cl)c(-c2cccc(N)c2)n(CC(=O)NCc2ccc(C(N)=S)cc2)c1=O" next
Result: 7

Query: Do the same for "N=C(N)c1ccc(CNC(=O)Cn2c(-c3ccc4c(c3)OCO4)c(Cl)nc(NCc3ccncc3)c2=O)cc1" please
Result: 18

---

Molecular target: Human factor Xa (Homo sapiens, UniProt P00742)
Test: Xa Assay
Assay type: biochemical
Set-up: purchased Enzyme Research Laboratories, South Bend Ind
Details: at 100 μM inhibitor
endpoint: % Inhibition Factor Xa at 100 μM (% at 100 μM)
Write it as a number; the unit % at 100 μM goes unstated.

>  <compound>
CC(C)Nc1nc(Cl)c(-c2cc(N)cc(C(=O)NCc3ccc(Br)cc3)c2)n(CC(=O)NCc2ccc(C(=N)N)cc2)c1=O

>  <system tested>
Human factor Xa (Homo sapiens, UniProt P00742)

>  <% Inhibition Factor Xa at 100 μM, % at 100 μM>
44

$$$$
>  <compound>
CC(C)Nc1nc(Cl)c(-c2cc(N)cc(C(=O)NCc3ccc(Cl)cc3Cl)c2)n(CC(=O)NCc2ccc(C(=N)N)cc2)c1=O

>  <system tested>
Human factor Xa (Homo sapiens, UniProt P00742)

>  <% Inhibition Factor Xa at 100 μM, % at 100 μM>
43

$$$$
>  <compound>
C[C@H](Nc1nc(Cl)c(-c2cccc(N)c2)n(CC(=O)NCc2ccc(C(=N)N)cc2)c1=O)C(=O)O

>  <system tested>
Human factor Xa (Homo sapiens, UniProt P00742)

>  <% Inhibition Factor Xa at 100 μM, % at 100 μM>
6

$$$$

Query: Request body: readout % Inhibition Factor Xa at 100 μM, system Human factor Xa (Homo sapiens, UniProt P00742), query CC(CC(=O)O)Nc1nc(Cl)c(-c2cccc(N)c2)n(CC(=O)NCc2ccc(C(=N)N)cc2)c1=O (stereo not shown) . Return the value.
Result: 24

---

Read-out record for Human thrombin (Homo sapiens): % Inhibition Thrombin II (30 µM)
Please state the figure in %; there is no need to write the unit.

Please review the following examples before continuing.
>  <molecule>
CC(C)Nc1nc(Cl)c(-c2cccc(N)c2)n(CC(=O)NCc2ccc(C(N)=S)cc2)c1=O [Example 156]

>  <unit info>
%

>  <observed>
5

$$$$
>  <molecule>
CC(C)Nc1nc(Cl)c(-c2cc(N)ccc2SCC(=O)O)n(CC(=O)NCc2ccc(C(=N)N)cc2)c1=O [Example 110]

>  <unit info>
%

>  <observed>
20

$$$$
>  <molecule>
N=C(NC(=O)OCc1ccccc1)c1ccc(CNC(=O)Cn2c(-c3cccc(N)c3)c(Cl)nc(NC3CCC3)c2=O)cc1 [Example 151]

>  <unit info>
%

>  <observed>
29

$$$$

Below: the item to evaluate.
Query: # % Inhibition Thrombin II (30 µM) lookup, item N=C(N)c1ccc(CNC(=O)Cn2c(-c3cc(N)cc(C(=O)O)c3)cnc(NC3CCC3)c2=O)cc1 [Example 118]
Result: 3

---

Each record here notes measured pIC50.
Target: recombinant soluble tissue factor and recombinant human factor VIIa (TF-VIIa) (Homo sapiens, UniProt P08709)
Construct: conversion of coagulation factor VII to VIIa by Xa; purchased American Diagnostica, Greenwich Conn; host or cells: VIIa purchased; soluble TF made in house in E. coli
Assay: TF-VIIa Assay
Format: biochemical
Conditions: read-out: IC50 TF-VIIa
Give only the number. pIC50 is defined as minus log10 of concentration in molar units.

>  <compound>
C[C@@H](Nc1nc(Cl)c(-c2cccc(N)c2)n(CC(=O)NCc2ccc(C(=N)N)cc2)c1=O)C(=O)O

>  <pIC50>
7.29

$$$$
>  <compound>
N=C(N)c1ccc(CNC(=O)Cn2c(-c3ccc(N)cc3)c(Cl)nc(NC3CCC3)c2=O)cc1

>  <pIC50>
6.26

$$$$
>  <compound>
N=C(N)c1ccc(C(O)CCCn2c(-c3cccc(N)c3)c(Cl)nc(NC3CCC3)c2=O)cc1 (stereo not shown)

>  <pIC50>
4.36

$$$$

Query: Please give the measured pIC50 for this compound: "N=C(N)c1ccc(CNC(=O)Cn2c(-c3ccc(C(=N)N)cc3)c(Cl)nc(NC3CCC3)c2=O)cc1"
Result: 5.21

---

% Inhibition Factor Xa (100 µM) values for the compounds below.
Target: Human factor Xa (Homo sapiens)
Test: Xa Assay
Assay type: biochemical
Design: purchased Enzyme Research Laboratories, South Bend Ind
Details: inhibitor at 100 µM
Report the figure in % without appending any unit label.

Before answering, review these 5 worked examples.
>  <compound>
O=C(Cn1c(-c2ccccc2)c(Cl)nc(NCCc2ccc(Cl)cc2)c1=O)NCCc1ccncc1

>  <observed>
0

$$$$
>  <compound>
COc1ccc(-c2c(Cl)nc(NCCc3ccc(Cl)cc3)c(=O)n2CC(=O)NCCc2ccncc2)cc1 [Example E-0036]

>  <observed>
0

$$$$
>  <compound>
O=C(Cn1c(-c2cccc(Cl)c2)c(Cl)nc(NCCc2cccc(Cl)c2)c1=O)NCCc1ccncc1 [Example E-0091]

>  <observed>
4

$$$$
>  <compound>
O=C(Cn1c(-c2ccc(Cl)cc2)c(Cl)nc(NCCc2cccnc2)c1=O)NCCc1ccncc1 [Example E-0021]

>  <observed>
1

$$$$
>  <compound>
O=C(Cn1c(CCc2ccccc2)c(Cl)nc(NCc2ccncc2)c1=O)NCCc1ccncc1

>  <observed>
0

$$$$

Query: Please tell me: % Inhibition Factor Xa (100 µM) of "COc1ccc(-c2c(Cl)nc(NCCc3cccc(Cl)c3)c(=O)n2CC(=O)NCCc2cccnc2)cc1" , system Human factor Xa (Homo sapiens)?
Result: 5

Query: Please do the same for "O=C(Cn1c(CCc2ccccc2)c(Cl)nc(NCCc2cccc(Cl)c2)c1=O)NCCc1ccncc1" as well.
Result: 0
